Could you please report measured MRT for the items listed next?
- experimentDescription: Balb/C mouse pharmacokinetics (plasma, colon, ileum)
- Format: in vivo
- settings: male, plasma, po, Balb/C mice, p.o. 5 mg/kg, blood, read-out: Mean detention time MRT
Give bare numbers, in h.

Recorded MRT, per entry:
Cc1cc(Nc2nc(N[C@@H]3C[C@@H]4CN(CCC#N)C[C@@H]4C3)nc3ccsc23)n[nH]1 [Embodiment 299] :: 1.92
Cc1cc(Nc2nc(N[C@@H]3C[C@H]4CC[C@@H](C3)N4CCC#N)nc3cc(Br)ccc23)n[nH]1 [Embodiment 170] :: 4.13
Cc1cc(Nc2nc(N[C@@H]3C[C@H]4CCC[C@@H](C3)N4CCC#N)nc3scnc23)n[nH]1 [Embodiment 278] :: 1.5
Cc1cc(Nc2nc(N[C@@H]3C[C@H]4CC[C@@H](C3)N4S(=O)(=O)N3CC(C#N)C3)nc3cc(Cl)ccc23)n[nH]1 [Embodiment 214] :: 1.82
Cc1cc(Nc2nc(N[C@@H]3C[C@H]4CC[C@@H](C3)N4CCC#N)nc3sc(C)cc23)n[nH]1 [Embodiment 277] :: 2.53

For every item in the list below, what is its measured MRT?
1. Cc1cc(Nc2nc(N[C@@H]3C[C@H]4CC[C@@H](C3)N4S(=O)(=O)N3CC(C#N)C3)nc3sccc23)n[nH]1 [Embodiment 237]
2. Cc1cc(Nc2nc(N[C@@H]3C[C@H]4CCC[C@@H](C3)N4S(=O)(=O)N3CC(C#N)C3)nc3sccc23)n[nH]1 [Embodiment 238]

1. 1.73
2. 1.47

----------
- experimentDescription: Balb/C mouse pharmacokinetics (plasma, colon, ileum)
- Assay type: in vivo
- settings: male, po, Balb/C mice, p.o. 5 mg/kg, ileum, read-out: Blood concentration Cmax
experimentalEndpoint: Cmax
Write your answer as a measured quantity: the number, then the unit.

Cc1cc(Nc2nc(N(C)[C@@H]3C[C@H]4CCC[C@@H](C3)N4C(=O)CN3CCN(C)CC3)nc3sccc23)n[nH]1 :: 25800 ng/mL
Cc1cc(Nc2nc(N[C@@H]3C[C@H]4CC[C@@H](C3)N4CCC#N)nc3c2cnn3C)n[nH]1 :: 4300 ng/mL
Cc1cc(Nc2nc(N[C@@H]3C[C@H]4CC[C@@H](C3)N4CCC#N)nc3ccsc23)n[nH]1 :: 26100 ng/mL

Please examine the following record next.
Using the record for Cc1cc(Nc2nc(N[C@@H]3C[C@H]4CC[C@@H](C3)N4CCC#N)nc3cc(Br)ccc23)n[nH]1 , report its Cmax.
49900 ng/mL

----------
# log10 IC50 measurements, system: JAK1 (Homo sapiens)
# Sequence (P23458 whole entry): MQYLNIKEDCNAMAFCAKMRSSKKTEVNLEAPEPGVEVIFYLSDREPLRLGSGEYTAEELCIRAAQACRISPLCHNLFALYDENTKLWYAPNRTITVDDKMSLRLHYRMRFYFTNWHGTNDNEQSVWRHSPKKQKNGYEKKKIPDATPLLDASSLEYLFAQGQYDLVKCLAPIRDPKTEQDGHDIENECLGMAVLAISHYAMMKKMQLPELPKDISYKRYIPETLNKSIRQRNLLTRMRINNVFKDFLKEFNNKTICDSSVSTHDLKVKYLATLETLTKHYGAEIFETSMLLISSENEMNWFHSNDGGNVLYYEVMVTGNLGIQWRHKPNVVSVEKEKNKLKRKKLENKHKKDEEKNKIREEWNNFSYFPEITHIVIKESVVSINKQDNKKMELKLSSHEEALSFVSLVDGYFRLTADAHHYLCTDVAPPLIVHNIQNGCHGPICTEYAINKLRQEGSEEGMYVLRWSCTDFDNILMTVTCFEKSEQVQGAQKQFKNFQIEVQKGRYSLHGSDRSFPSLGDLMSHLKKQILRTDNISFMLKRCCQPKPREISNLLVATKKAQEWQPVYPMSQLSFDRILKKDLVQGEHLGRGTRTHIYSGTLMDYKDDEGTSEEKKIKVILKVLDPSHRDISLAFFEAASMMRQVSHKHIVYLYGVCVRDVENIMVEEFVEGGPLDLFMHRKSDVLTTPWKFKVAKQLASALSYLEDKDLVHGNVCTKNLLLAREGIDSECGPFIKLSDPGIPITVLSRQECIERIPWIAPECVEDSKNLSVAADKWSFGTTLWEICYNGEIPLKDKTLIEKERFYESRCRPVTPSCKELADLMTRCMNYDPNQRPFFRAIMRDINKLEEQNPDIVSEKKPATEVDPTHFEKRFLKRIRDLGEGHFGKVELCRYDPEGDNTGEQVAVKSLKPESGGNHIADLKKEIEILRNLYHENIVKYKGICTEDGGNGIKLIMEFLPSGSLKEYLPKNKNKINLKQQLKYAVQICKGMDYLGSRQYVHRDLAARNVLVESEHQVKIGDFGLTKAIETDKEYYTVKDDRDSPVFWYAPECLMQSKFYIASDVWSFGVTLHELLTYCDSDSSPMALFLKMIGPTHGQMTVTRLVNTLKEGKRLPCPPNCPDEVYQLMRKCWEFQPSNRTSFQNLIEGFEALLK
Log scale reminder: IC50 in nM, then log10 taken.

Field: example entries. Status: answers known.
Cc1cc(Nc2nc(N[C@@H]3C[C@H]4CCC[C@@H](C3)N4C(=O)c3cccnc3)nc3sccc23)n[nH]1 :: -1.40
Cc1cc(Nc2nc(N[C@@H]3C[C@H]4CC[C@@H](C3)N4S(=O)(=O)N3CC(C#N)C3)nc3ccccc23)n[nH]1 :: -0.70
Cc1cc(Nc2nc(N[C@@H]3C[C@H]4CC[C@@H](C3)N4CCC#N)nc3ccccc23)n[nH]1 :: -0.07

Provide log10 IC50 for all items below, preserving their order.
1. Cc1cc(Nc2nc(N[C@@H]3C[C@H]4CCC[C@@H](C3)N4C(=O)c3ccncc3)nc3sccc23)n[nH]1
2. COc1ccc2c(Nc3cc(C)[nH]n3)nc(N[C@@H]3C[C@H]4CC[C@@H](C3)N4CCC#N)nc2c1
3. Cc1cc(Nc2cc3ncccc3c(N[C@@H]3C[C@H]4CC[C@@H](C3)N4S(=O)(=O)c3cn[nH]c3)n2)n[nH]1
4. Cc1cc(Nc2cc3nccnc3c(N[C@@H]3C[C@H]4CC[C@@H](C3)N4CCC#N)n2)n[nH]1
5. Cc1cc(Nc2nc(N[C@@H]3C[C@H]4CC[C@@H](C3)N4CCC#N)nc3cccnc23)n[nH]1
6. Cc1cc(Nc2nc(N[C@@H]3C[C@H]4CC[C@@H](C3)N4CCC#N)nc3c(C)cccc23)n[nH]1
7. Cc1cc(Nc2nc(N[C@@H]3C[C@H]4CC[C@@H](C3)N4C(=O)[C@H]3CCCN3)nc3sccc23)n[nH]1

1: -1.15; 2: -0.20; 3: 1.12; 4: 0.24; 5: 0.44; 6: 0.62; 7: -0.36

Parameters: items (list). Returns: log10 IC50 for each item.
1. OCc1cnc(Nc2cc3ncccc3c(N[C@@H]3C[C@H]4CC[C@@H](C3)N4CCF)n2)s1
2. Cc1cc(Nc2nc(N[C@@H]3C[C@H]4CC[C@@H](C3)N4CCC#N)nc3cc(-c4cnn(C)c4)ccc23)n[nH]1
3. Cc1cc(Nc2nc(N[C@@H]3C[C@H]4CC[C@@H](C3)N4CCC#N)nc3cc[nH]c23)n[nH]1

[0.41, -0.92, -0.08]
